# System: HCT-15 colon
# ASSAY_NOTES: NCI-60 one-dose screen, 48 h (100 = growth as untreated, 0 = no growth, -100 = all killed)
# SETUP_CONDITIONS: 10 µM unless noted
This is part of a sample that, as a whole, favours compounds with a hit. Of some 83,000 tested, about 20% had one in any assay.

{"COMPOUND": "COc1ccc(CCN2C(=O)CSC2=S)cc1", "growth [%]": 56.9}
{"COMPOUND": "C[C@@H]1C[C@H]2C(=O)O[C@@H](C)C(NC(=O)[C@H](Cc3cc(F)cc(F)c3)NC(=O)Nc3ccc(Cl)cc3F)C(=O)N3CCC[C@H]3C(=O)N3CCCC[C@H]3C(=O)N[C@@H](CO)C(=O)N2C1 (some centres undefined)", "growth [%]": 13.2}
{"COMPOUND": "CC(=O)N1C(=S)NC(=O)C1CC(C)C (centres undefined)", "growth [%]": 99.7}
{"COMPOUND": "CCO/C=N/C1=C(C#N)C(c2ccc(Cl)cc2)c2sc3c(C)cccc3c2O1 (centres undefined)", "growth [%]": 12.5}

###

# Test system: SK-MEL-28 melanoma
# ASSAY_NOTES: NCI-60 one-dose screen, 48 h (100 = growth as untreated, 0 = no growth, -100 = all killed)
# SETUP_CONDITIONS: 10 µM unless noted
# Experimental: Growth inhibition of the SK-MEL-28 human tumor cell line is measured as a screen for anti-cancer activity. Cells are grown in 96 well plates and exposed to the test compound for 48 hours. Compounds are tested at a single concentration, which is 10^-5 M for most compounds. The reported endpoint is percent growth (GI% or GIPRCNT), where numbers from 0 - 100% represent growth inhibition, and numbers from -100% - 0 represent cell death. For example, a value of 40 represents 60% growth inhibition. […]
This is part of a sample that, as a whole, favours compounds with a hit. Of some 83,000 tested, about 20% had one in any assay.
READOUT_NAME: growth (%)

{"COMPOUND": "Cc1cc(C)c(N2C(=O)CC(Nc3ccc(Cl)cc3Cl)C2=O)c(C)c1 (centres undefined)", "MEASURED": 102}
{"COMPOUND": "COc1ccc(/C=C(/C)c2ccc3ccc(OC)cc3[o+]2)c(O)c1", "MEASURED": 96}
{"COMPOUND": "COc1ccc(-c2nn(-c3ccc(S(C)(=O)=O)cc3)cc2/C=N/O)cc1", "MEASURED": 96.1}
{"COMPOUND": "COc1ccc(/C=N/NC(=O)c2cn(C3CC3)c3c(OC)c(N4CC5CCCNC5C4)c(F)cc3c2=O)cc1 (centres undefined)", "MEASURED": 92.8}
{"COMPOUND": "C=CCn1c(SCC(=O)Nc2ccc(C(=O)/C=C/c3cccc([N+](=O)[O-])c3)cc2)nnc1-c1c[nH]c2ccccc12", "MEASURED": 95.4}
{"COMPOUND": "O=S(=O)(NCCNc1nccc(-n2cnc3ccccc32)n1)c1ccc(C(F)(F)F)cc1", "MEASURED": 77.2}
{"COMPOUND": "O=C(O)c1ccc(-n2cc(CNc3cc(F)c(F)c(F)c3)c(-c3ccc(F)cc3)n2)cc1", "MEASURED": 85.9}
{"COMPOUND": "O=C(NCc1ncc[nH]1)c1ccc(-c2nc3ccc4[nH]ncc4c3c3c2CCCC3)cc1", "MEASURED": -1.75}
{"COMPOUND": "CC/C(=C/c1cc(OC)ccc1O)c1ccc2cc(OC)ccc2[o+]1", "MEASURED": 61.8}

###

Each entry below carries its recorded growth.
# Test system: NCI-H460 lung
# ASSAY_NOTES: NCI-60 one-dose screen, 48 h (100 = growth as untreated, 0 = no growth, -100 = all killed)
# SETUP_CONDITIONS: 10 µM unless noted
This is part of a sample that, as a whole, favours compounds with a hit. Of some 83,000 tested, about 20% had one in any assay.
READOUT_NAME: growth (%)

{"COMPOUND": "NS(=O)(=O)c1ccc(-n2cc(-c3cccc(NC(=O)c4ccc(N5CCOCC5)c(C(F)(F)F)c4)c3)nn2)cc1", "STUDY_SYSTEM": "NCI-H460 lung", "MEASURED": 50.7}
{"COMPOUND": "COCCNc1ccc2ncc(C#Cc3cncc(C(=O)Nc4ccc(CN5CCN(C)CC5)c(C(F)(F)F)c4)c3)n2n1", "STUDY_SYSTEM": "NCI-H460 lung", "MEASURED": -82.5}
{"COMPOUND": "Cc1cccc(/C=C/C(=O)Nc2ncc(Cc3cccc(C)c3)s2)c1", "STUDY_SYSTEM": "NCI-H460 lung", "MEASURED": 8.64}
{"COMPOUND": "Cn1ccnc1C(=O)/C=C/c1ccc(NC(=O)c2ccc(F)cc2)cc1", "STUDY_SYSTEM": "NCI-H460 lung", "MEASURED": -19.7}
{"COMPOUND": "NC(N)=Nc1ccc(Oc2cccc(Nc3ccc(Cl)c(C(F)(F)F)c3)c2)cn1", "STUDY_SYSTEM": "NCI-H460 lung", "MEASURED": -76.2}
{"COMPOUND": "Cc1cccc2c3c(sc12)C(c1ccc(F)cc1)C(C#N)=C(/N=C/c1ccc(Cl)cc1)O3 (centres undefined)", "STUDY_SYSTEM": "NCI-H460 lung", "MEASURED": 5.27}
{"COMPOUND": "CC(=O)Nc1cccc(Nc2nc(N[C@@H](C)c3ccccc3)c3ccccc3n2)c1", "STUDY_SYSTEM": "NCI-H460 lung", "MEASURED": 2.67}
{"COMPOUND": "CCNC(=O)N1CCc2cc(OC)c(OCCc3ccc(OC)nc3)cc2C1c1ccc(C)cc1C (centres undefined)", "STUDY_SYSTEM": "NCI-H460 lung", "MEASURED": 1.74}
{"COMPOUND": "COc1ccc(C(=O)Nc2ncc(Cc3ccccc3Cl)s2)cc1", "STUDY_SYSTEM": "NCI-H460 lung", "MEASURED": 2.79}

###

# Tested on: IGROV1 ovarian
# ASSAY_NOTES: NCI-60 one-dose screen, 48 h (100 = growth as untreated, 0 = no growth, -100 = all killed)
# SETUP_CONDITIONS: 10 µM unless noted
Compounds without any hit were thinned out: in the full panel of roughly 83,000, 20% have a hit. Calls of active or inactive are those of the source. The calls were made as follows: active = growth percent below 10; inactive = the rest.

{"MOLECULE": "C#CC(=O)N(c1ccc(OC)cc1OC)C(C(=O)NCC(=O)OCC)c1cccs1 (centres undefined)", "growth": "-58.1% (active)"}
{"MOLECULE": "O=C1CCC(N2C(=O)c3ccc(NS(=O)(=O)c4ccccc4OC(F)(F)F)cc3C2=O)C(=O)N1 (centres undefined)", "growth": "23.5% (inactive)"}
{"MOLECULE": "O=C(Cn1c(-c2ccccc2)nc2cc(Cl)c(Cl)cc21)N=Nc1c(O)[nH]c2ccc(Cl)cc12", "growth": "87.9% (inactive)"}
{"MOLECULE": "CC(C)(C)CC(C)(C)n1nnnc1C(Nc1nccs1)c1cc2cccc3ccc4cccc1c4c32 (centres undefined)", "growth": "93.5% (inactive)"}
{"MOLECULE": "O=C(CCn1cc[n+](CC(=O)c2ccc(-c3ccccc3)cc2)c1)Nc1cccc2cccnc12", "growth": "36.4% (inactive)"}
{"MOLECULE": "Cn1ccnc1C(=O)/C=C/c1ccc(NC(=O)c2ccc(F)cc2)cc1", "growth": "34.7% (inactive)"}
{"MOLECULE": "Cc1c(Cl)cccc1S(=O)(=O)Nc1ccc2c(c1)C(=O)N(C1CCC(=O)NC1=O)C2=O (centres undefined)", "growth": "64.1% (inactive)"}
{"MOLECULE": "Cc1ccc(-c2cc3nc(C(Cl)Cl)nc(C)n3n2)cc1", "growth": "72.2% (inactive)"}
{"MOLECULE": "COc1ccc(/C=C/C(=O)c2cc(S(N)(=O)=O)c(OC)cc2OC)cc1", "growth": "81.8% (inactive)"}
{"MOLECULE": "NC(N)=Nc1ccc(Oc2cccc(NC(N)=Nc3ccc(Br)cc3)c2)cn1", "growth": "37.9% (inactive)"}
{"MOLECULE": "NS(=O)(=O)c1ccc(-n2cc(CN3CCCCC3)nn2)cc1", "growth": "104% (inactive)"}
{"MOLECULE": "Cc1ccc(-n2cc(/C=C/C(=O)c3ccc(O)cc3)c(-c3ccc(S(C)(=O)=O)cc3)n2)cc1", "growth": "47.7% (inactive)"}
{"MOLECULE": "COc1ccc(C(=O)CSc2nc3c(c(Nc4ccc(S(N)(=O)=O)cc4)n2)CCCC3)cc1", "growth": "112% (inactive)"}
{"MOLECULE": "COC[C@]12CCC(C)(C)C[C@H]1C1=CC[C@@H]3[C@@]4(C)CCCNC(C)(C)[C@@H]4CC[C@@]3(C)[C@]1(C)CC2", "growth": "-54.4% (active)"}
{"MOLECULE": "CN1CCN(c2ccc(/C=N/Nc3nc4ccccc4c(=O)n3-c3ccccc3)cc2)CC1", "growth": "104% (inactive)"}
{"MOLECULE": "COc1ccc(-c2nc3cccc(O)c3c(=O)n2Cc2ccccc2)cc1COc1ccc(NC(C)=O)cc1", "growth": "41.6% [3 µM] (inactive)"}
{"MOLECULE": "Nc1cc(F)ccc1NC(=O)c1ccc(NC(=O)C/C=C/c2cccnc2)cc1", "growth": "27.9% (inactive)"}
{"MOLECULE": "CC(=O)c1cc(C(=O)N2c3ccccc3Sc3ccccc32)n2ccc3ccccc3c12", "growth": "49.9% (inactive)"}
{"MOLECULE": "CCOc1ccc(NC2=C(Cl)C(=O)c3nc(C)ccc3C2=O)cc1", "growth": "-82.4% (active)"}
